Each record here notes measured Pre-emergent action, rating, Avena.
Tested on: Avena
method: Herbicidal action before emergence of the plants (pre-emergent action)
Assay type: in vivo
experimental context: 2000 g of active substance/ha, sprayed immediately after sowing, evaluated after 3 weeks, ratings scale of nine levels (1=complete damage, 9=no action)
Reply with the value as a number alone.

# count of solved cases: 5
>  <compound>
NC1=NC(Oc2c(F)c(F)c(F)c(F)c2F)=NS(N2CC[C@H]3CCC[C@H]32)=N1 (relative stereo) [6.10]

>  <target under test>
Avena

>  <reported>
4

$$$$
>  <compound>
CC1(C)CC(OS2=NC(N)=NC(Oc3c(F)c(F)c(F)c(F)c3F)=N2)CC(C)(C)C1 (stereo not drawn) [5.146]

>  <target under test>
Avena

>  <reported>
4

$$$$
>  <compound>
CC1CCCC(OS2=NC(N)=NC(Oc3c(F)c(F)c(F)c(F)c3F)=N2)C1 (stereo not drawn) [5.317]

>  <target under test>
Avena

>  <reported>
4

$$$$
>  <compound>
CC1CCN(S2=NC(N)=NC(Oc3c(F)c(F)c(F)c(F)c3F)=N2)C2CCCCC12 (stereo not drawn) [6.285]

>  <target under test>
Avena

>  <reported>
5

$$$$
>  <compound>
NC1=NC(Oc2c(F)c(F)c(F)c(F)c2F)=NS(N2CCN(c3ccccc3)CC2)=N1 (stereo not drawn) [6.77]

>  <target under test>
Avena

>  <reported>
4

$$$$

Now for the compound whose Pre-emergent action, rating, Avena we want.
Please give the documented Pre-emergent action, rating, Avena of CN(Cc1ccc(Cl)nc1)S1=NC(N)=NC(Oc2c(F)c(F)c(F)c(F)c2F)=N1 (stereo not drawn) [6.170]
3
